// merged dataset of Ki values, system = Protein kinase C theta type (Homo sapiens), multiple refs

>>> endpoint_value("Fc1ccc(N2CCC(F)CC2)nc1-c1n[nH]c2ncccc12")
"> 700 nM"

For every item below, please supply its Ki.
1. CC(C)C(C)(O)C1CN(c2ccc(C(F)(F)F)c(-c3n[nH]c4ncccc34)n2)CCN1 (stereo not shown)
2. NC1CCN(c2ccc(C(F)(F)F)c(-c3n[nH]c4ncccc34)n2)C1 (stereo not shown)
3. CC1CN(c2cccc(-c3n[nH]c4ncccc34)n2)C(C)CN1 (stereo not shown)
4. NC[C@@H]1CCN(c2ccc(C(F)(F)F)c(-c3n[nH]c4ncccc34)n2)C1
5. Fc1ccccc1CNc1ncc2nc(-c3c(F)cccc3Cl)n(C[C@H]3CCCNC3)c2n1

< 50 nM
< 2800 nM
> 700 nM
> 700 nM
< 1000 nM

For every item below, please supply its Ki.
1. N#CCCOc1ccc(C(F)(F)F)c(-c2n[nH]c3ncccc23)n1
2. Cc1cc(-c2n[nH]c3ncccc23)nc(N2CCNCC2)c1
3. CCC1(C)CN(c2ccc(C(F)(F)F)c(-c3n[nH]c4ncccc34)n2)CCC1N (stereo not shown)
4. OC1(C2CN(c3ccc(F)c(-c4n[nH]c5ncccc45)n3)CCN2)CCCC1 (stereo not shown)
5. FC(F)(F)c1ccc(NCC2CNC2)nc1-c1n[nH]c2ncccc12

["> 700 nM", "> 700 nM", "< 50 nM", "< 50 nM", "> 700 nM"]

For every item below, please supply its Ki.
1. Fc1ccc(N2CCNC3(CCC3)C2)nc1-c1n[nH]c2ncccc12
2. NCCCNc1ncc2[nH]c(=O)n(Cc3ccccc3Cl)c2n1
3. NCCC1CCCN(c2ccc(F)c(-c3n[nH]c4ncccc34)n2)C1 (stereo not shown)
4. FC(F)(F)c1ccc(N2CCN[C@@H](c3ccccc3)C2)nc1-c1n[nH]c2ncccc12

["< 50 nM", "< 100 nM", "> 700 nM", "< 50 nM"]

====

// merged dataset of Ki values, system = Protein kinase C theta type (Homo sapiens, UniProt Q04759), multiple refs

Recorded results for 2 compounds are shown here.
>>> endpoint_value("NC1CCN(c2ccc(C(F)(F)F)c(-c3n[nH]c4ncccc34)n2)CC12CCOCC2 (stereo not drawn)")
"< 500 nM"
>>> endpoint_value("CC(Nc1ncc2nc(-c3c(Cl)cccc3Cl)n(CCC3CCNCC3)c2n1)c1ccccc1 (stereo not drawn)")
"< 10000 nM"

For every item below, please supply its Ki.
1. CC(F)(F)CC1CN(c2ccc(F)c(-c3n[nH]c4ncccc34)n2)CCN1 (stereo not drawn)
2. NC1CCCN(c2cccc(-c3n[nH]c4ncccc34)n2)C1 (stereo not drawn)
3. CCC(C#N)n1cc(-c2ccnc3[nH]ncc23)cn1 (stereo not drawn)
4. Clc1ccc(CNc2ncc3nc(-c4ccccc4Cl)n(C[C@@H]4CCCNC4)c3n2)cc1Cl
5. OC[C@H](Cc1ccccc1)Nc1ccc(C(F)(F)F)c(-c2n[nH]c3ncccc23)n1
6. Fc1ccc(CNc2ncc3nc(-c4c(Cl)cccc4Cl)n(CC4CCNC4)c3n2)cc1 (stereo not drawn)

1. < 50 nM
2. < 500 nM
3. < 500 nM
4. < 10000 nM
5. > 700 nM
6. < 1000 nM

For every item below, please supply its Ki.
1. CC(C)(CN)CNc1cccc(-c2n[nH]c3ncccc23)n1
2. Clc1ccc(N2CCNCC2)nc1-c1n[nH]c2ncccc12
3. NC1CN(c2cccc(-c3n[nH]c4ncccc34)n2)C1
4. CCC(C)(C#N)c1csc(-c2ccnc3[nH]nc(Cl)c23)n1 (stereo not drawn)

["< 500 nM", "< 500 nM", "< 2800 nM", "< 50 nM"]

====

// merged dataset of Ki values, system = Protein kinase C theta type (Homo sapiens, UniProt Q04759), multiple refs

Recorded results for 4 compounds are shown here.
>>> endpoint_value("Fc1ccc(CNc2ncc3nc(-c4c(Cl)cccc4Cl)n(CCC4CCNCC4)c3n2)c(F)c1")
"< 1000 nM"
>>> endpoint_value("CNC(C1CCCN(c2ccc(F)c(-c3n[nH]c4ncccc34)n2)C1)C(C)(C)C (centres unmarked)")
"< 500 nM"
>>> endpoint_value("N#CC1(c2cccc(-c3ncnc4[nH]nc(C5CC5)c34)c2)CC1")
"50 to 500 nM"
>>> endpoint_value("CC[C@H]1CN(c2ccc(C(F)(F)F)c(C(=O)c3cccnc3N)n2)C[C@H](CC(C)C)N1")
"500 to 2800 nM"

Dear colleague, I am looking for the recorded Ki of the following compound: `CCC[C@H]1CN(c2ccc(F)c(-c3n[nH]c4ncccc34)n2)C[C@H]1N`
< 500 nM

====

// merged dataset of pKi values, system = Protein kinase C theta type (Homo sapiens, UniProt Q04759), multiple refs
pKi: −log10 of the molar value.

>>> endpoint_value("Fc1ccc(N2CCNC(C3CC3)C2)nc1-c1n[nH]c2ncccc12 (stereo not shown)")
"> 7.30"
>>> endpoint_value("Fc1ccc(CNc2ncc3nc(-c4c(Cl)cccc4Cl)n(C[C@@H]4CCCNC4)c3n2)c(F)c1")
"> 7.00"
>>> endpoint_value("CCC[C@H]1CN(c2ccc(C(F)(F)F)c(-c3n[nH]c4ncccc34)n2)C[C@H]1N")
"< 6.15"
>>> endpoint_value("CC(C)CC1(O)CNCCN(c2ccc(F)c(-c3n[nH]c4ncccc34)n2)C1 (stereo not shown)")
"> 6.30"

For every item below, please supply its pKi.
1. N#CCC(=O)N1CCCN(c2cccc(C(=O)c3cccnc3N)n2)CC1
2. Fc1ccccc1CNc1ncc2nc(-c3cccc(F)c3F)n(CCC3CCNCC3)c2n1
3. CCc1n[nH]c2ncnc(-c3cccc(C4(CN)CC4)c3)c12
4. CC(C)CC1(C#N)CCN(c2ccc(C(F)(F)F)c(-c3n[nH]c4ncccc34)n2)CC1
5. NCC1CN(c2ccc(C(F)(F)F)c(-c3n[nH]c4ncccc34)n2)CCO1 (stereo not shown)
6. Fc1ccc(CNc2ncc3nc(-c4c(F)cccc4Cl)n(C[C@@H]4CCCNC4)c3n2)cc1F
7. Cc1sc(-c2ccnc3[nH]ncc23)nc1C(C)(C)CN
8. CCC[C@H]1CN(c2cccc(-c3n[nH]c4ncccc34)n2)CCCN1

5.55 to 6.30
> 6.00
> 7.30
< 6.15
< 6.15
> 7.00
> 6.30
> 7.30

Dear colleague, I am looking for the recorded pKi of the following compound: `FC(F)(F)c1ccnc2[nH]nc(-c3cccc(N4CCNCC4)n3)c12`
> 6.30
